molecular target: NADPH oxidase 4 (Homo sapiens); assay: NOX4-dependent H2O2 signal modulators, primary screen, NOX inhibitor project, cell-based, HEK293-NOX4, tetracycline-induced, Amplex Red fluorescence (AID 1160); conditions: 45 min, higher = more signal, called active from +8 up or from −8 down
// label = Fulfilled if z-score is not less than 0.4, otherwise Not fulfilled

Prompt: Textbook exercise: given the entry COC(=O)[C@]1(CCC(=O)OC(C)(C)C)N=C(c2ccc(OCCCO)cc2)O[C@@H]1c1ccccc1CN=[N+]=[N-] , state whether its z-score is greater than or equal to 0.4.
Response: Not fulfilled

Prompt: Textbook exercise: given the entry COCCOC(=O)N1C(=O)[C@@]2(c3ccccc31)[C@H](c1ccc(O)cc1)N1[C@H](c3ccccc3)[C@H](c3ccccc3)OC(=O)[C@H]1[C@@H]2C(=O)Nc1nc2ccccc2s1 , state whether its z-score is greater than or equal to 0.4.
Response: Fulfilled

Prompt: Textbook exercise: given the entry O=C(c1ccccc1)N1Cc2ccccc2C[C@@]2(COC(c3ccc(OCCCO)cc3)=N2)C1=O , state whether its z-score is greater than or equal to 0.4.
Response: Not fulfilled

Prompt: Textbook exercise: given the entry [N-]=[N+]=NCc1ccccc1C[C@]1(C(=O)N2CCCCC2)N=C(c2ccc(OCCCO)cc2)O[C@H]1c1ccccc1N=[N+]=[N-] , state whether its z-score is greater than or equal to 0.4.
Response: Not fulfilled

Prompt: Textbook exercise: given the entry COCCOC(=O)N1C(=O)[C@@]2(c3cc(C#CC4(O)CCCCCC4)ccc31)[C@H](c1ccccc1OCCO)N1[C@H](c3ccccc3)[C@H](c3ccccc3)OC(=O)[C@H]1[C@@H]2C(=O)N1CCN(c2ncccn2)CC1 , state whether its z-score is greater than or equal to 0.4.
Response: Not fulfilled

Prompt: Textbook exercise: given the entry COC(=O)[C@@]1(Cc2ccc(OC)cc2)[C@H]2c3cc(C(=O)N4CCCC4)n(Cc4ccc(O)c(OC)c4)c3C[C@H]2CN1C(=O)c1ccccc1 , state whether its z-score is greater than or equal to 0.4.
Response: Not fulfilled

* * *

Please provide measured composite z-score for the entries that follow.
assay: binders of probe aFGF2 on microarray, primary screen, stem cell growth factor project, biochemical, small-molecule microarray, fluorescence 635/667 (AID 1067); details: higher = more signal;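 further: measures binding of biotinylated aFGF2 protein to printed compounds on slides; z-score merges feature fluorescence and signal-to-noise across triplicate slides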
API doc: respond with a numeric literal and nothing else, no unit.

Prompt: Which composite z-score reading was recorded for the compound CCCC[C@H]1OB(O)C[C@H]2C1=C(COC)Cn1c(=O)n(-c3ccccc3)c(=O)n12 ?
Response: -0.157

Prompt: Which composite z-score reading was recorded for the compound COCCOC(=O)N1C(=O)[C@@]2(c3cc(C#CCCO)ccc31)[C@H](C(=O)N1CCCCCCC1)[C@H]1C(=O)O[C@H](c3ccccc3)[C@H](c3ccccc3)N1[C@@H]2c1ccc(OCCO)cc1 ?
Response: 0.68

Prompt: Which composite z-score reading was recorded for the compound C=C(COC)C(=O)CC[C@@H](OC(C)=O)c1ccc(CO)o1 ?
Response: -0.147

Prompt: Which composite z-score reading was recorded for the compound COC(=O)C(CC#Cc1ccc2c(c1)[C@]1(C(=O)N2)[C@H](C(=O)Nc2nc3ccccc3s2)[C@H]2C(=O)O[C@H](c3ccccc3)[C@H](c3ccccc3)N2[C@@H]1c1ccc(O)cc1)C(=O)OC ?
Response: 0.0495

Prompt: Which composite z-score reading was recorded for the compound O=C1C2C=CC(C(O)c3cccc4ccccc34)N(Nc3ccccc3F)C2C(=O)N1c1ccccc1 (configuration not stated) ?
Response: -0.0209

Prompt: Which composite z-score reading was recorded for the compound CC1CC/C=C\[C@H]2OC34C=CCN(Cc5ccccc5)C(=O)[C@H]3N(CCCO)C(=O)[C@@H]4C2C(=O)O1 (some centres not stated) ?
Response: -0.118

Prompt: Which composite z-score reading was recorded for the compound CCCC[C@@H]1C[C@H]1[C@@H](NC(=O)c1cccs1)c1ccc(-c2ccccc2)cc1 ?
Response: 0.189

* * *

Please provide measured composite z-score for the entries that follow.
biological target: Carbonic anhydrase 2 (Homo sapiens) (UniProt P00918); assay: CAII small-molecule binders, profiling panel, biochemical, small-molecule microarray, Alexa647-labelled CAII (AID 1122); conditions: CAII-A647 binding fluorescence, higher = more signal
API doc: respond with a numeric literal and nothing else, no unit.

Prompt: Which composite z-score reading was recorded for the molecule COC(=O)[C@]1(CCC(=O)OC(C)(C)C)N=C(c2ccc(OCCCO)cc2)O[C@@H]1c1ccccc1CN=[N+]=[N-] ?
Response: 0.675

Prompt: Which composite z-score reading was recorded for the molecule CCC(CC)C(O)C1C=CC2C(=O)NC(=O)C2N1Nc1ccccn1 (centres undefined) ?
Response: 0.763

Prompt: Which composite z-score reading was recorded for the molecule C=CCNC(=O)[C@@H]1[C@H]2C(=O)O[C@H](c3ccccc3)[C@H](c3ccccc3)N2[C@H](c2ccc(O)cc2)[C@@]12C(=O)Nc1ccc(C#CCNC(N)=O)cc12 ?
Response: 0.352

Prompt: Which composite z-score reading was recorded for the molecule COCCOC(=O)N1C(=O)[C@@]2(c3cc(C#CC4(O)CCCCCC4)ccc31)[C@H](c1ccc(OCCO)cc1)N1[C@H](c3ccccc3)[C@H](c3ccccc3)OC(=O)[C@H]1[C@@H]2C(=O)N1CCN(c2ncccn2)CC1 ?
Response: 0.497

* * *

Please provide measured composite z-score for the entries that follow.
test: small-molecule microarray binders of probe aEGFR, primary screen, biochemical, biotinylated probe, 635/667 nm fluorescence (AID 1097); settings: higher = more signal;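 further: probe is a biotinylated anti-EGFR antibody binding compounds printed on slides; score combines fluorescence near 667 nm and signal to noise of each spot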
API doc: respond with a numeric literal and nothing else, no unit.

Prompt: Which composite z-score reading was recorded for the compound CCCC[C@H]1OB(O)C[C@H]2C1=C(COC)Cn1c(=O)n(-c3ccccc3)c(=O)n12 ?
Response: -0.137

Prompt: Which composite z-score reading was recorded for the compound CCCC[C@@H]1C[C@H]1[C@@H](NC(=O)c1cccs1)c1ccc(-c2ccccc2)cc1 ?
Response: -0.0688

Prompt: Which composite z-score reading was recorded for the compound C=CCNC(=O)[C@H]1[C@@H]2C(=O)O[C@@H](c3ccccc3)[C@@H](c3ccccc3)N2[C@@H](c2ccccc2OCCO)[C@]12C(=O)Nc1ccc(C#CCC(C(=O)OC)C(=O)OC)cc12 ?
Response: 0.486

Prompt: Which composite z-score reading was recorded for the compound [N-]=[N+]=Nc1ccccc1[C@@H]1OC(c2ccc(OCCCO)cc2)=N[C@]1(CCS(=O)(=O)c1ccccc1)C(N)=O ?
Response: 0.122

* * *

test system: Sam68 (KHDRBS1); assay: Sam68 small-molecule binders, primary screen, biochemical, small-molecule microarray, 635 nm fluorescence (AID 1125); conditions: small-molecule microarray binding, higher = more signal;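 further: score merges 667 nm channel intensity with signal to noise over triplicate slides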
Please provide measured composite z-score for the entries that follow.
API doc: respond with a numeric literal and nothing else, no unit.

Prompt: Which composite z-score reading was recorded for the compound COc1ccc(/C=C/C=O)cc1 ?
Response: -0.235

Prompt: Which composite z-score reading was recorded for the compound NC(=O)NCC#Cc1ccc2c(c1)[C@]1(C(=O)N2)[C@H](c2ccc(O)cc2)N2[C@H](c3ccccc3)[C@H](c3ccccc3)OC(=O)[C@H]2[C@@H]1C(=O)O ?
Response: -0.0756

Prompt: Which composite z-score reading was recorded for the compound COCCOC(=O)N1C(=O)[C@@]2(c3ccccc31)[C@H](c1ccccc1OCCO)N1[C@H](c3ccccc3)[C@H](c3ccccc3)OC(=O)[C@H]1[C@@H]2C(=O)N1CCN(c2ncccn2)CC1 ?
Response: 1.29

Prompt: Which composite z-score reading was recorded for the compound CNS(=O)(=O)c1ccc(C)cc1 ?
Response: 0.667

Prompt: Which composite z-score reading was recorded for the compound COCCOC(=O)N1C(=O)[C@@]2(c3cc(C#CCNC(N)=O)ccc31)[C@H](C(=O)N1CCN(c3ncccn3)CC1)[C@H]1C(=O)O[C@H](c3ccccc3)[C@H](c3ccccc3)N1[C@@H]2c1ccc(OCCO)cc1 ?
Response: 1.29

Prompt: Which composite z-score reading was recorded for the compound O=C1c2ccccc2[C@](Cc2ccccc2I)(C(=O)NCCN2CCOCC2)[C@H](c2ccc(CO)cc2)N1C1CCCCC1 ?
Response: 1.31

Prompt: Which composite z-score reading was recorded for the compound C=C(CCCC)/C(=C/C[C@H](OC(=O)c1ccncc1)c1ccccc1OCCO)c1cnc2ccccc2c1 ?
Response: 1.16

Prompt: Which composite z-score reading was recorded for the compound COc1cccc(-c2cccc(=O)o2)c1 ?
Response: -0.579

Prompt: Which composite z-score reading was recorded for the compound COC(=O)[C@@]1(Cc2ccc(OC)cc2)[C@H]2c3cc(C(=O)N(C)C)n(Cc4ccccn4)c3C[C@H]2CN1C(=O)c1ccccc1 ?
Response: -0.0453

Prompt: Which composite z-score reading was recorded for the compound COC(=O)C[C@H]1O[C@]2(C(=O)N(C)c3ccccc32)[C@@H](C)[C@@H]1[Si](C)(C)F ?
Response: 1.09

Prompt: Which composite z-score reading was recorded for the compound C=C(/C(=C/C[C@H](OC(C)=O)c1ccccc1OCCO)c1cnc2ccccc2c1)C(C)C ?
Response: 0.461

Prompt: Which composite z-score reading was recorded for the compound CC(C)C[C@@H]1NC(=O)[C@H](C(C)C)NC(=O)[C@@]23C(=O)N[C@@H](Cc4ccccc4)C2[C@H](C)[C@@]2(C)O[C@H]2C3/C=C/CC/C=C/CNC1=O (stereo partly specified) ?
Response: 1.29

Prompt: Which composite z-score reading was recorded for the compound Cc1ccccc1C(O)C1C=CC2C(=O)N(c3ccccc3)C(=O)C2N1Nc1ccc(C(C)C)cc1 (stereo unspecified) ?
Response: 1.15

Prompt: Which composite z-score reading was recorded for the compound COc1cc2c(cc1O)C(c1cccs1)N(C)CC2 (stereo unspecified) ?
Response: -1.2

Prompt: Which composite z-score reading was recorded for the compound CCC(CC)C(O)C1C=CC2C(=O)NC(=O)C2N1Nc1ccccn1 (stereo unspecified) ?
Response: 0.0905

Prompt: Which composite z-score reading was recorded for the compound CCCC#C[Si](O[C@H](CC)c1cn(Cc2cccc(Cl)c2)nn1)(C(C)C)C(C)C ?
Response: 1.18
